These entries and their values trace back to patent US20120023600A1.

// reported EC50 per item
# Subject Of Test: T1, DKK1-APP (human, UniProt O94907 32-266)
# T1 sequence: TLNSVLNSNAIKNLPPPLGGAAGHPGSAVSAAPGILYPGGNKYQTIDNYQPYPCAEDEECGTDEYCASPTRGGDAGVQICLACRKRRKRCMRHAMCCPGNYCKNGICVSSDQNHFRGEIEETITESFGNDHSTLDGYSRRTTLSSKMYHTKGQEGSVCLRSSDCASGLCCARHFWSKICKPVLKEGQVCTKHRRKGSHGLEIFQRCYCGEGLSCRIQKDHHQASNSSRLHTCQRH
# Procedure Summary: cell-based or functional assay
Field: numeric (nM). Do not append units.

Binder	EC50 [nM]
MOR04516 (Fab, V domains shown, Fab with C-terminal FLAG and 6xHis tags; also called MOR4516) VH: QVQLVQSGAEVKKPGESLKISCKGSGYSFTNYYIGWVRQMPGKGLEWMGIIYPTDSYTNYSPSFQGQVTISADKSISTAYLQWSSLKASDTAMYYCARGIPFRMRGFDYWGQGTLVTVSS VL: DIVLTQPPSVSGAPGQRVTISCSGSSSNIGSSFVNWYQQLPGTAPKLLIGNNSNRPSGVPDRFSGSKSGTSASLAITGLQSEDEADYYCASFDMGSPNVVFGGGTKLTVLG	42

Challenge: Field request: EC50 | item: MOR04454 (Fab, V domains shown, Fab with C-terminal FLAG and 6xHis tags) VH: QVQLVESGGGLVQPGGSLRLSCAASGFTFSNYGLHWVRQAPGKGLEWVSSISYYGSSTYYADSVKGRFTISRDNSKNTLYLQMNSLRAEDTAVYYCARDGSHMDKPPGYVFAFWGQGTLVTVSS VL: DIQMTQSPSSLSASVGDRVTITCRASQGIKNYLNWYQQKPGKAPKLLIGAASSLQSGVPSRFSGSGSGTDFTLTISSLQPEDFATYYCLQYYGMPPTFGQGTKVEIKR
Response given: 83

Challenge: Continue with MOR04470 (Fab, V domains shown, Fab with C-terminal FLAG and 6xHis tags) VH: QVQLVESGGGLVQPGGSLRLSCAASGFTFSSYWMSWVRQAPGKGLEWVSVISSDSSSTYYADSVKGRFTISRDNSKNTLYLQMNSLRAEDTAVYYCARHGIDFDHWGQGTLVTVSS VL: DIALTQPASVSGSPGQSITISCTGTSSDLGGYNYVSWYQQHPGKAPKLMIYDVNNRPSGVSNRFSGSKSGNTASLTISGLQAEDEADYYCQSYASGNTKVVFGGGTKLTVLG
Response given: 58

Challenge: Continue with MOR04461 (Fab, V domains shown, Fab with C-terminal FLAG and 6xHis tags) VH: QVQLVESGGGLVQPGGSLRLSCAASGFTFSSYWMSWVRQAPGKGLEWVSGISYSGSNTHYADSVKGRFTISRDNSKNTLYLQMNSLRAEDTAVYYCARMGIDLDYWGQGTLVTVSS VL: DIALTQPASVSGSPGQSITISCTGTSSDVGGFNYVSWYQQHPGKAPKLMIHDGSNRPSGVSNRFSGSKSGNTASLTISGLQAEDEADYYCSTWDMTVDFVFGGGTKLTVLG
Response given: 57

Challenge: Continue with MOR04455 (Fab, V domains shown, Fab with C-terminal FLAG and 6xHis tags) VH: QVQLVESGGGLVQPGGSLRLSCAASGFTFSSYGMSWVRQAPGKGLEWVSGISGSGSYTYYADSVKGRFTISRDNSKNTLYLQMNSLRAEDTAVYYCARHYMDHWGQGTLVTVSS VL: DIQMTQSPSSLSASVGDRVTITCRASQDISNYLHWYQQKPGKAPKLLIYGASNLQSGVPSRFSGSGSGTDFTLTISSLQPEDFAVYYCQQYDSIPMTFGQGTKVEIKR
Response given: 39

Challenge: Continue with MOR04456 (Fab, V domains shown, Fab with C-terminal FLAG and 6xHis tags) VH: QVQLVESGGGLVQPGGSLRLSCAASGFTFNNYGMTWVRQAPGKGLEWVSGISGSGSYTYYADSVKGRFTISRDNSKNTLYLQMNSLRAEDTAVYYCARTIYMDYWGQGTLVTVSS VL: DIVLTQSPATLSLSPGERATLSCRASQNLFSPYLAWYQQKPGQAPRLLIYGASNRATGVPARFSGSGSGTDFTLTISSLEPEDFATYYCQQYGDEPITFGQGTKVEIKR
Response given: 95
